SK Expression (% control): recorded values
test system: streptokinase (SK); conditions: compound conc. 70 μg/ml

>  <Compound>
C=CCn1c(SCc2ccccc2)nc2c(c1=O)C1(CCCCC1)Cc1ccccc1-2 [compound 575097]

>  <Metric Name>
SK Expression (% control)

>  <Meas Value>
65 % control

$$$$
>  <Compound>
CCn1c(SCc2ccccc2)nc2c(c1=O)C1(CCCC1)Cc1ccccc1-2 [AK968]

>  <Metric Name>
SK Expression (% control)

>  <Meas Value>
45 % control

$$$$
>  <Compound>
C=CCn1c(SCCOC)nc2c(c1=O)C1(CCCCC1)Cc1ccccc1-2 [CCG-102493]

>  <Metric Name>
SK Expression (% control)

>  <Meas Value>
52 % control

$$$$

Task item: Which SK Expression (% control) is reported with streptokinase (SK) for this entry: C=CCn1c(SCc2ccccc2)nc2c(c1=O)C(C)(C)Cc1ccccc1-2 [compound 25203] ?
Reply: 60 % control

The values you see were collected from patent US8501722B2.
